Tested on: DENV-R2A (Rluc-expressing DENV, serotype 2 strain 16681)
Assay procedure: microbe, parasite or virus in culture
Format: cell-based, Dengue virus
Condition: Dengue virus, Huh7.5, 48 h, read-out: DENV-R2A replication (fold DMSO) Mean, deconvolution screen, singletons, 50 µM, Huh7.5, 2 days postinfection
Measured activity at 50 µM by item
Output spec: scalar in %, unitless text.

These solved cases illustrate the format of a correct answer.
Nc1ccc(Cl)nn1 [PS-5236, Nc1ccc(Cl)nn1]    108
CC(=O)c1ccc2cn[nH]c2c1 [Compound 6A1HI, 6-acetyl-1H-indazole]    0.244
Cn1cncc1C(=O)O [AS-5483, Cn1cncc1C(=O)O]    99
Nc1cccnc1Cl [PS-5762, Nc1cccnc1Cl]    106
CC(C)(C)OC(=O)N1CCCCn2nc(CO)cc2C1 [Compound 10X-0603, CC(C)(C)OC(=O)N1CCCCn2nc(CO)cc2C1]    106

-- ask Fill in: activity at 50 µM of Nc1cccc(Cl)c1Cl [PS-4077, Nc1cccc(Cl)c1Cl] is ___
-- reply 96
